# credit: patent US20160257697A1

Tested on: HCV replicon 1AY93H
Assay: microbe, parasite or virus in culture
Type: cell-based, Hepatitis C virus (HCV)
Conditions: read-out: 1A Y93H IC50; HCV replicon 1A Y93H; Replicon Assay A
Each entry below carries its recorded IC50.

compound	unit_of_measurement	IC50
COC(=O)N[C@H](C(=O)N1CCC[C@H]1c1ncc(-c2ccc3c(c2)OC(c2cc4ccccc4s2)n2c-3cc3cc(-c4cnc([C@@H]5C[C@H]6C[C@H]6N5C(=O)[C@@H](NC(=O)OC)C(C)C)[nH]4)ccc32)[nH]1)C(C)C (single isomer, unassigned) [Compound 608]	nM	0.0529
COC(=O)NC(C(=O)N1[C@@H]2C[C@@H]2C[C@H]1c1ncc(-c2ccc3c(c2)cc2n3C(c3ccc(C(F)F)s3)Oc3cc(-c4cnc([C@@H]5CCCN5C(=O)[C@@H](NC(=O)OC)C(C)C)[nH]4)cc(F)c3-2)[nH]1)C1CCOC(C)(C)C1 (single isomer, unassigned) [Compound 415]	nM	0.0042

---

Each entry below carries its recorded log10 IC50.
Tested on: HCV replicon 2B
Assay: microbe, parasite or virus in culture
Assay type: cell-based, Hepatitis C virus (HCV)
Conditions: read-out: 2B IC50; HCV replicon 2B; Replicon Assay A
measured_property: log10 IC50 (log10 of the value in nM)

compound	assay_value
COC(=O)N[C@H](C(=O)N1CCC[C@H]1c1ncc(-c2ccc3c(c2)OC(c2cc(C)c(C)s2)n2c-3cc3cc(-c4cnc([C@@H]5C[C@H]6C[C@H]6N5C(=O)[C@@H](NC(=O)OC)C(C)C)[nH]4)ccc32)[nH]1)C(C)C (single isomer, unassigned) [Compound 501]	0.92
COC(=O)N[C@H](C(=O)N1CCC[C@H]1c1ncc(-c2cc(F)c3c(c2)OC(c2scc4c2OCCO4)n2c-3cc3cc(-c4cnc([C@@H]5CCCN5C(=O)[C@@H](NC(=O)OC)C(C)C)[nH]4)ccc32)[nH]1)C(C)C (single isomer, unassigned) [Compound 525]	0.50
COC(=O)N[C@H](C(=O)N1CCC[C@H]1c1ncc(-c2ccc3c(c2)OC(c2cc4sccc4s2)n2c-3cc3cc(-c4c[nH]c([C@@H]5C[C@H]6C[C@H]6N5C(=O)[C@@H](NC(=O)OC)C(C)C)n4)ccc32)[nH]1)C(C)C (single isomer, unassigned) [Compound 716]	0.37
CCc1ccc(C2Oc3cc(-c4cnc([C@@H]5CCCN5C(=O)[C@@H](NC(=O)OC)C(C)C)[nH]4)ccc3-c3c(F)c4cc(-c5cnc([C@@H]6CCCN6C(=O)[C@@H](NC(=O)OC)C(C)C)[nH]5)ccc4n32)s1 (single isomer, unassigned) [Compound 602]	-0.84
COC(=O)N[C@H](C(=O)N1CCC[C@H]1c1ncc(-c2ccc3c(c2)OC(c2cc4ccccc4s2)n2c-3cc3cc(-c4cnc([C@@H]5C[C@H]6C[C@H]6N5C(=O)[C@@H](NC(=O)OC)C(C)C)[nH]4)ccc32)[nH]1)C(C)C (single isomer, unassigned) [Compound 610]	-0.57
COC(=O)N[C@H](C(=O)N1CCC[C@H]1c1ncc(-c2cc(F)c3c(c2)OC(c2ccc(CC(C)C)s2)n2c-3cc3cc(-c4cnc([C@@H]5CCCN5C(=O)[C@@H](NC(=O)OC)C(C)C)[nH]4)ccc32)[nH]1)C(C)C (single isomer, unassigned) [Compound 522]	-0.38
COC(=O)N[C@H](C(=O)N1CCC[C@H]1c1ncc(-c2cc(F)c3c(c2)OC(c2cc(C)c(C)s2)n2c-3cc3cc(-c4cnc([C@@H]5C[C@H]6C[C@H]6N5C(=O)[C@@H](NC(=O)OC)C(C)C)[nH]4)ccc32)[nH]1)C(C)C (single isomer, unassigned) [Compound 507]	0.27

---

Each entry below carries its recorded pIC50.
Test system: HCV replicon 1AY93H
Assay: microbe, parasite or virus in culture
Format: cell-based, Hepatitis C virus (HCV)
Conditions: read-out: 1A Y93H IC50; HCV replicon 1A Y93H; Replicon Assay A
pIC50: −log10 of the molar value.
measured_property: pIC50

compound	assay_value
COC(=O)N[C@H](C(=O)N1C[C@H](F)C[C@H]1c1nc(-c2ccc3c(c2)OC(c2ccc(C)s2)n2c-3cc3cc(-c4c[nH]c([C@@H]5C[C@H]6C[C@H]6N5C(=O)[C@@H](NC(=O)OC)C5CCOCC5)n4)ccc32)c[nH]1)C1CCOCC1 (single isomer, unassigned) [Compound 730]	10.22
COC(=O)NC(C(=O)N1CCC[C@H]1c1ncc(-c2ccc3c(c2)cc2n3C(c3cc4c(s3)CCC4)Oc3cc(-c4cnc([C@@H]5CCCN5C(=O)[C@@H](NC(=O)OC)C(C)C)[nH]4)cc(C)c3-2)[nH]1)C1CCOC(C)(C)C1 (single isomer, unassigned) [Compound 852]	8.88
COC(=O)N[C@H](C(=O)N1CCC[C@H]1c1ncc(-c2cc(F)c3c(c2)OC(c2ccc(C(F)(F)F)s2)n2c-3cc3cc(-c4cnc([C@@H]5CCCN5C(=O)[C@@H](NC(=O)OC)C5CCOCC5)[nH]4)ccc32)[nH]1)C(C)C (single isomer, unassigned) [Compound 654]	11.02
COC(=O)N[C@H](C(=O)N1CCC[C@H]1c1ncc(-c2cc(F)c3c(c2)OC(c2cc(C)c(C)s2)n2c-3cc3cc(-c4cnc([C@@H]5C[C@H]6C[C@H]6N5C(=O)[C@@H](NC(=O)OC)C(C)C)[nH]4)ccc32)[nH]1)C(C)C (single isomer, unassigned) [Compound 509]	8.21

---

System: HCV replicon 1B
Assay: microbe, parasite or virus in culture
Type: cell-based, Hepatitis C virus (HCV)
Conditions: Hepatitis C virus, HCV replicon 1B; Replicon Assay B
pIC50: −log10 of the molar value.
Each entry below carries its recorded pIC50.

molecule	pIC50
COC(=O)N[C@H](C(=O)N1CCC[C@H]1c1ncc(-c2ccc3c(c2)OC(c2cc4ccccc4s2)n2c-3cc3cc(-c4cnc([C@@H]5C[C@@H](F)CN5C(=O)[C@@H](NC(=O)OC)C5CCOCC5)[nH]4)ccc32)[nH]1)C1CCOCC1 (single isomer, unassigned)	10.06
COC(=O)N[C@H](C(=O)N1CCC[C@H]1c1ncc(-c2cc(F)c3c(c2)OC(c2ccc(C(F)(F)F)s2)n2c-3cc3cc(-c4cnc([C@@H]5CCCN5C(=O)[C@@H](NC(=O)OC)C5CCOCC5)[nH]4)ccc32)[nH]1)C(C)C (single isomer, unassigned)	11.70
COC(=O)NC(C(=O)N1CCC[C@H]1c1ncc(-c2ccc3c(c2)cc2n3C(c3cc4c(s3)CCC4)Oc3cc(-c4cnc([C@@H]5CCCN5C(=O)[C@@H](NC(=O)OC)C(C)C)[nH]4)cc(C)c3-2)[nH]1)C1CCOC(C)(C)C1 (single isomer, unassigned)	11.60
CCc1ccc(C2Oc3cc(-c4cnc([C@@H]5CCCN5C(=O)[C@@H](NC(=O)OC)C(C)C)[nH]4)ccc3-c3c(F)c4cc(-c5cnc([C@@H]6CCCN6C(=O)[C@@H](NC(=O)OC)C(C)C)[nH]5)ccc4n32)s1 (single isomer, unassigned)	11.77

---

System: HCV replicon 1AY93H
Assay: microbe, parasite or virus in culture
Format: cell-based, Hepatitis C virus (HCV)
Conditions: read-out: 1A Y93H IC50; HCV replicon 1A Y93H; Replicon Assay A
pIC50: −log10 of the molar value.
I would appreciate it if you labelled entries Condition met when pIC50 is 10 or higher, otherwise Condition not met.

compound	assay_target	label
COC(=O)N[C@H](C(=O)N1CCC[C@H]1c1ncc(-c2cc(F)c3c(c2)OC(c2cc(C)c(C)s2)n2c-3cc3cc(-c4cnc([C@@H]5C[C@@H](F)CN5C(=O)[C@@H](NC(=O)OC)C(C)C)[nH]4)ccc32)[nH]1)C(C)C (single isomer, unassigned) [Compound 514]	HCV replicon 1AY93H	Condition not met
COC(=O)N[C@H](C(=O)N1CCC[C@H]1c1ncc(-c2cc(C)c3c(c2)OC(c2cc4c(s2)CCC4)n2c-3cc3cc(-c4cnc([C@@H]5CCCN5C(=O)[C@@H](NC(=O)OC)C5C[C@@H](C)O[C@@H](C)C5)[nH]4)ccc32)[nH]1)C(C)C (single isomer, unassigned) [Compound 549]	HCV replicon 1AY93H	Condition not met
COC(=O)NC(C(=O)N1CCC[C@H]1c1ncc(-c2ccc3c(c2)cc2n3C(c3cc4ccccc4s3)Oc3cc(-c4cnc([C@@H]5CCCN5C(=O)[C@@H](NC(=O)OC)C(C)C)[nH]4)cc(F)c3-2)[nH]1)C1C[C@@H](C)O[C@@H](C)C1 (single isomer, unassigned) [Compound 640]	HCV replicon 1AY93H	Condition met
COC(=O)NC(C(=O)N1CCC[C@H]1c1ncc(-c2ccc3c(c2)cc2n3C(c3ccc(CC4CC4)s3)Oc3cc(-c4cnc([C@@H]5CCCN5C(=O)[C@@H](NC(=O)OC)C(C)C)[nH]4)cc(F)c3-2)[nH]1)C1CCOC(C)(C)C1 (single isomer, unassigned) [Compound 409]	HCV replicon 1AY93H	Condition not met
COC(=O)N[C@H](C(=O)N1CCC[C@H]1c1nc(-c2cc(F)c3c(c2)OC(c2ccc(C4CC4)s2)n2c-3cc3cc(-c4c[nH]c([C@@H]5C[C@H]6C[C@H]6N5C(=O)[C@@H](NC(=O)OC)C(C)C)n4)ccc32)c[nH]1)C(C)C (single isomer, unassigned) [Compound 721]	HCV replicon 1AY93H	Condition met
CCc1ccc(C2Oc3cc(-c4cnc([C@@H]5CCCN5C(=O)[C@@H](NC(=O)OC)C(C)C)[nH]4)cc(C)c3-c3cc4cc(-c5cnc([C@@H]6CCCN6C(=O)C(NC(=O)OC)C6C[C@@H](C)O[C@@H](C)C6)[nH]5)ccc4n32)s1 (single isomer, unassigned) [Compound 543]	HCV replicon 1AY93H	Condition met
